Test system: L6
procedure-summary: Cytotoxicity against rat L6 cells after 72 hrs by Alamar blue assay
Type: cell-based
experimental-conditions: L6, 72 h, read-out: IC50
measurement-label: pIC50
Remember the convention: pIC50 equals -log10 of concentration in molar.

Below are worked cases with known answers.
molecule	pIC50
CC(C)=CC(=O)O[C@H]1CC[C@]2(C)[C@H]3CC[C@]45C[C@]4(CC[C@H]5[C@@H]4C[C@H]([C@@H]5O[C@@]5(C)CO)O[C@H]4O)[C@]3(C)[C@H](O)C[C@H]2C1(C)C	5.07
CC(=O)O[C@@H]1C[C@H]2C(C)(C)[C@H](O)CC[C@]2(C)[C@H]2CC[C@]3(C)C(=CC[C@H]3[C@@H]3C[C@H]([C@H](O)C(C)(C)O)OC3=O)[C@@]21C	4.37
CC(C)=CC(=O)O[C@H]1CC[C@]2(C)[C@H]3CC[C@]45C[C@]4(CC[C@H]5[C@@H]4C[C@H]([C@H](O)C(C)(C)O)O[C@H]4O)[C@]3(C)[C@H](O)C[C@H]2C1(C)C	5.19

--- query ---
For reference, reported pIC50 for C=C(C)[C@@H]1CC=C2[C@H](CC[C@@]3(C)[C@H]([C@@H](C)CC(O)C(O)C(C)(C)O)CC[C@]23C)[C@@]1(C)CCC(=O)O (some centres undefined) stands at 4.25
